# Experimental target: Grb2 SH2 (UniProt P62993)
# Assay info: SH2 binding enrichment of the phosphorylated peptide, bacterial display (enrichment ratio); higher = better substrate or ligand; peptides without Tyr show the background
Result type: SH2 binding enrichment

[
  {
    "Chain": "GHLFAYDWISI [BEST1_Y227_YF]",
    "Experimental target": "Grb2 SH2 (UniProt P62993)",
    "Measured": 1.36
  }
]

[P] RWGQKHMTAVV [CYBA_Y72_Y72H]
[Q] SVTCTYSPARN [TP53_Y126_L130R]
Please indicate which has the smaller reported SH2 binding enrichment: P , or Q . Refer to your chosen item by its label in the answer.
Q
(Q: 0.793, P: 1.68)

----------
# System: AncSZ
# Assay info: phosphorylation enrichment, bacterial display (enrichment ratio); higher = better substrate or ligand; peptides without Tyr show the background
phosphorylation enrichment values for the sequences below.
// no unit string in output, number only

Solved entries (count: 5):
[
  {
    "Chain": "TESNNYIFKTL [FAM83B_Y637_YF]",
    "Experimental target": "AncSZ",
    "Measured": 1.26
  },
  {
    "Chain": "NFRPGYNNFFN [USH2A_Y467_YF]",
    "Experimental target": "AncSZ",
    "Measured": 0.773
  },
  {
    "Chain": "VSSPKYGGDDE [TMCC2_Y473_S475G]",
    "Experimental target": "AncSZ",
    "Measured": 0.96
  },
  {
    "Chain": "STILLYHIMAW [GPR143_Y157]",
    "Experimental target": "AncSZ",
    "Measured": 1.59
  },
  {
    "Chain": "MEIHAYHKLLE [LMNA_Y376_R377H]",
    "Experimental target": "AncSZ",
    "Measured": 0.974
  }
]

Which phosphorylation enrichment is reported with AncSZ for this entry: KIMVIYDGACQ [VWDE_Y1035_T1032M] ?
1.35

Which phosphorylation enrichment is reported with AncSZ for this entry: RAIGYYSATSK [FAM120A_Y328] ?
0.765

Which phosphorylation enrichment is reported with AncSZ for this entry: FLTLHYDAKPQ [ANG_Y38_Q36L] ?
0.912

Which phosphorylation enrichment is reported with AncSZ for this entry: NPQKPYFIRLY [WAS_Y83_S82P] ?
1.01

----------
phosphorylation enrichment values for the sequences below.
# Test system: c-Src
# Assay info: phosphorylation enrichment, bacterial display (enrichment ratio); higher = better substrate or ligand; peptides without Tyr show the background
// no unit string in output, number only

Solved entries (count: 3):
[
  {
    "Chain": "ELTAKYLNYYQ [P3H4_Y181]",
    "Measured": 0.492
  },
  {
    "Chain": "CGTPTCLAPEV [CHEK2_Y390_Y390C]",
    "Measured": 0.454
  },
  {
    "Chain": "LIDTVYSSSSA [OR4C12_Y71]",
    "Measured": 3.25
  }
]

Which phosphorylation enrichment is reported with c-Src for this entry: SVIVPYEPPEV [TP53_Y220_V217I] ?
0.445

Which phosphorylation enrichment is reported with c-Src for this entry: DEFLEYRRIVG [FAM221A_Y20_YF] ?
0.507

Which phosphorylation enrichment is reported with c-Src for this entry: AELVRYYMEHH [PTPN11_Y80_Q79R] ?
0.486

Which phosphorylation enrichment is reported with c-Src for this entry: KMATAYIRSMS [BCO1_Y264_R267S] ?
0.385

Which phosphorylation enrichment is reported with c-Src for this entry: KIVFVYVKKRS [DNAI2_Y7_E2K_YF] ?
0.428

Which phosphorylation enrichment is reported with c-Src for this entry: SARFRYLLAEK [LDHB_Y173_M175L] ?
0.515

Which phosphorylation enrichment is reported with c-Src for this entry: LRSKQYLRNPP [SHC1_Y315_F312S] ?
0.399

Which phosphorylation enrichment is reported with c-Src for this entry: ARAHKYHGGGG [HBB_Y146_L142R] ?
0.312

Which phosphorylation enrichment is reported with c-Src for this entry: IRRQGYSHRIL [MYO3B_Y993] ?
0.42

Which phosphorylation enrichment is reported with c-Src for this entry: NTQRPHYKGGG [TYROBP_Y111_Y111H] ?
0.361

Which phosphorylation enrichment is reported with c-Src for this entry: SQPASYQRRLL [PPIG_Y320] ?
0.365

Which phosphorylation enrichment is reported with c-Src for this entry: CTTIHYNFKCN [TP53_Y234_M237K_YF] ?
0.411

----------
# Tested on: c-Abl (mouse)
# Assay info: phosphorylation enrichment, bacterial display (enrichment ratio); higher = better substrate or ligand; peptides without Tyr show the background
phosphorylation enrichment values for the sequences below.
// no unit string in output, number only

Solved entries (count: 6):
[
  {
    "Chain": "PEPTGYSAELS [EZR_Y499_A494P]",
    "Experimental target": "c-Abl (mouse)",
    "Measured": 0.962
  },
  {
    "Chain": "AERKLYSGAQT [ZAP70_Y178]",
    "Experimental target": "c-Abl (mouse)",
    "Measured": 0.545
  },
  {
    "Chain": "SRPHLYGTPSR [ADGRE2_Y670]",
    "Experimental target": "c-Abl (mouse)",
    "Measured": 0.538
  },
  {
    "Chain": "EWRSPYGLTPR [GRIN3B_Y601]",
    "Experimental target": "c-Abl (mouse)",
    "Measured": 0.486
  },
  {
    "Chain": "WSISFYPQVIM [CTNS_Y143]",
    "Experimental target": "c-Abl (mouse)",
    "Measured": 0.623
  },
  {
    "Chain": "MTFQNYGQALF [FAM20C_Y279]",
    "Experimental target": "c-Abl (mouse)",
    "Measured": 0.605
  }
]

Reported phosphorylation enrichment for EQKRYYNAMKK [SCN5A_Y1495_K1493R] : what is it?
0.447

Reported phosphorylation enrichment for TIQRMYGCDVG [HLA-A_Y123_I121R] : what is it?
0.775

Reported phosphorylation enrichment for VHNLDYFKKTT [FGFR3_Y647_YF] : what is it?
0.573

Reported phosphorylation enrichment for CTTIHYNFKCN [TP53_Y234_M237K_YF] : what is it?
0.51

Reported phosphorylation enrichment for PESILYRKFTT [NTRK1_Y701] : what is it?
0.732

----------
# Experimental target: Grb2 SH2 (UniProt P62993)
# Assay info: SH2 binding enrichment of the phosphorylated peptide, bacterial display (enrichment ratio); higher = better substrate or ligand; peptides without Tyr show the background
Result type: SH2 binding enrichment

[A] SKGYAYVHFDS [PABPC5_Y149]
[B] RFLTRYIFNRE [HLA-DQB1_Y62_V59L_YF]
Please indicate which has the smaller reported SH2 binding enrichment: A , or B . Refer to your chosen item by its label in the answer.
B

----------
# Experimental target: Hck (UniProt P08631)
# Sequence (P08631 whole entry, looked up): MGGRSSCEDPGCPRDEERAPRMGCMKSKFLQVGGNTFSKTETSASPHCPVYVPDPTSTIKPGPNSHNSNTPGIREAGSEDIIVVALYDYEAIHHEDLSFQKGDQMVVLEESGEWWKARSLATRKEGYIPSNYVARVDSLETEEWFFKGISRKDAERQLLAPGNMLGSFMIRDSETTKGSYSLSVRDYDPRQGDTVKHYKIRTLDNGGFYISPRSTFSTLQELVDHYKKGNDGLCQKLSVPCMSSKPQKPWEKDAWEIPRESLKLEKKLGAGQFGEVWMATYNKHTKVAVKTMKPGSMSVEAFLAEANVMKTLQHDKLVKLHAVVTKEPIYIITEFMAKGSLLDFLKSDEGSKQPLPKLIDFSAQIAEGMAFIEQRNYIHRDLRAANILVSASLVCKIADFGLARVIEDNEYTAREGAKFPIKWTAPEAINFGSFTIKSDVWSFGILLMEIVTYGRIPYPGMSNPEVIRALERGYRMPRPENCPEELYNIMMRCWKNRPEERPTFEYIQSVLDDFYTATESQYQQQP
# Assay info: phosphorylation enrichment, bacterial display (enrichment ratio); higher = better substrate or ligand; peptides without Tyr show the background
Result type: phosphorylation enrichment
// no unit string in output, number only

Solved entries (count: 3):
[
  {
    "Chain": "LLTALYFISRG [KCNH2_Y780]",
    "Experimental target": "Hck (UniProt P08631)",
    "phosphorylation enrichment": 1.24
  },
  {
    "Chain": "NFRPGYNNFFN [USH2A_Y467_YF]",
    "Experimental target": "Hck (UniProt P08631)",
    "phosphorylation enrichment": 0.466
  },
  {
    "Chain": "IWDLKYTIENP [SND1_Y178_R174W]",
    "Experimental target": "Hck (UniProt P08631)",
    "phosphorylation enrichment": 0.433
  }
]

Reported phosphorylation enrichment for EIIPFYGMSSF [FNDC3B_Y175_T179S_YF] : what is it?
1.15

Reported phosphorylation enrichment for NVSILYTASQA [CTNNA1_Y222_P219S] : what is it?
0.547

Reported phosphorylation enrichment for HEKFLYFLPAS [DYNC2H1_Y346] : what is it?
2.12

Reported phosphorylation enrichment for KQFWRYFAGNL [SLC25A4_Y112] : what is it?
0.449

Reported phosphorylation enrichment for MKSIKYMDKEI [CCDC60_Y41] : what is it?
0.402

Reported phosphorylation enrichment for SKGYAYVHFDS [PABPC5_Y149] : what is it?
0.53

Reported phosphorylation enrichment for TCRPPYFHRNC [HGD_Y333_F329C_YF] : what is it?
0.548

Reported phosphorylation enrichment for TEAEPYYRSLR [NPHS1_Y1138] : what is it?
0.503

Reported phosphorylation enrichment for IRTIDYRFTVS [IDS_Y497_W502S_YF] : what is it?
0.444
